Target: RARb:RXRa (Homo sapiens, UniProt P10826;P19793 full;full)
Sequence (P10826 whole entry, chain 1 of 2): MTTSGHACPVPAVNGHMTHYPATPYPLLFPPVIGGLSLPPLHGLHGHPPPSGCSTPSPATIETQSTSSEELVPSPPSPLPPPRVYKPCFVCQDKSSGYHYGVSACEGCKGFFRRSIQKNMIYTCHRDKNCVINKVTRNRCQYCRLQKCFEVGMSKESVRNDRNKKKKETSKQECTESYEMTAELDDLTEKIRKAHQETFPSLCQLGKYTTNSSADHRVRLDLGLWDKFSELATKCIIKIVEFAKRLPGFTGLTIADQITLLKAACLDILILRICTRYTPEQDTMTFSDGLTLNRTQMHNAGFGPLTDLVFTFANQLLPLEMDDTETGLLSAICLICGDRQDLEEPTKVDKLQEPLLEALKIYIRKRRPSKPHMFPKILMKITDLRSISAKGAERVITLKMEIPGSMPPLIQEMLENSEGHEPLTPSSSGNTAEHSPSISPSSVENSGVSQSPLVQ
Sequence (P19793 whole entry, chain 2 of 2): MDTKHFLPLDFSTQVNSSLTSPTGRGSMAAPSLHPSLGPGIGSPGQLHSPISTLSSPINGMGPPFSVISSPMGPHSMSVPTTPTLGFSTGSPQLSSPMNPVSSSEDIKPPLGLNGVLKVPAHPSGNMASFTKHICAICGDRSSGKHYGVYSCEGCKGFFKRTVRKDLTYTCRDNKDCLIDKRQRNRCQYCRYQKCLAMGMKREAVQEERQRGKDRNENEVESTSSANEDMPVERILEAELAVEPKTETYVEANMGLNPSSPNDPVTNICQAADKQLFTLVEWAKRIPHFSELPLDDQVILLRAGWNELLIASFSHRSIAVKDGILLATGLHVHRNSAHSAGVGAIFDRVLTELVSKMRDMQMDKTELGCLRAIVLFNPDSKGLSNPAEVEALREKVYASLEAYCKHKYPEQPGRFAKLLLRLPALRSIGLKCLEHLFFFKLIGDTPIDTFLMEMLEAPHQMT
Assay: no ligand; PBM; 270 nM : 90 nM RXRa; PBS pH 7.4, 2% milk, 0.02% Triton X-100, 1 mM DTT, BSA, 0.4 mg/ml salmon testes DNA
Details: tags: His kept;His cleaved; copies: 1;1; label: surface-attached array probe
property.label: binding signal

// recorded binding signal for NRC3_wobSeed49_DR2_G16A_o1 (dsDNA) DNA 1: GCCAAACTAGGTCAAAAGGTCAAAGTCCGCTTCCCGGCGATTGACAGCGTAGAATGAAGG DNA 2: CCTTCATTCTACGCTGTCAATCGCCGGGAAGCGGACTTTGACCTTTTGACCTAGTTTGGC : 6 PBM z-score against 500 random probes
